biological target: T1, membrane-bound B Lymphocyte Stimulator on U937 plasma membrane preparations (human, UniProt Q9Y275 1-285); test: phage ELISA
T1 construct: Natural protein in plasma membrane fractions of the human cell line U937 coated on ELISA plates; also called U937 plasma membranes; U937 membranes
T1 sequence (Q9Y275 whole entry): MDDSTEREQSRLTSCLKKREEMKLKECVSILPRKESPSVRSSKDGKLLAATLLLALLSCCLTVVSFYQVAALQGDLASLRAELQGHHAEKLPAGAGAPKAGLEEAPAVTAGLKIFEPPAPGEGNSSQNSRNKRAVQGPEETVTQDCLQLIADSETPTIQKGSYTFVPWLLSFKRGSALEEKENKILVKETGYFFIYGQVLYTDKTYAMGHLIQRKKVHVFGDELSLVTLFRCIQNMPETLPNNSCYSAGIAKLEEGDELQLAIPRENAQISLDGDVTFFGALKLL
assay.metric: binding result

Query string: Param item = I016H07 (scFv) scFv: GVQLVQSGAEVKKPGASVKVSCKASGYTFTHYAINWLRQAPGQRPEWMGTINTGNGNTKYSQNFQGRLTITRDTSASTVNMELSSLRSEDTAVYYCAGGYHDPLTSYNYNWFDPWGQGTMVTVSSGGGGSGGGGSGGGGSSELTQDPAVSVALGQTVRITCQGDSLRSYYTNWFQQKPGQAPLLVVYAKNKRPSGIPDRFSGSSSGNTASLTITGAQAEDEADYYCHSRDSSGNHVLFGGGTKLTVLG ; retrieve measured binding result.
Result string: binds

Query string: Recorded binding result of I006E07 (scFv) scFv: QVQLQQSGAEEKKPGASVKVSCKASGYTFTSYAMHWVRQAPGQRLEWMGWINAGNGNTKYSQKFQGRVAITRDTSASTAYMELSSLRSEDTAVYYCARADYDILTGYSPLTYGMDVWGRGTLVTVSSGGGGSGGGGSGGGGSDIQMTQSPSTLSASIGDRVTITCRASEGIYHWLAWYQQKPGKAPKLLIYKASSLASGAPSRFSGSGSGTDFTLTISSLQPDDFATYYCQQYSNYPLTFGGGTKLEIKR , please.
Result string: binds
